assay target: T1, human MSLN on OVCAR3 tumor cells (human, UniProt Q13421 296-598)
T1 construct: whole, on cells; also called human MSLN protein
T1 sequence (Q13421 other isoform, or with tags, fused parts or gaps): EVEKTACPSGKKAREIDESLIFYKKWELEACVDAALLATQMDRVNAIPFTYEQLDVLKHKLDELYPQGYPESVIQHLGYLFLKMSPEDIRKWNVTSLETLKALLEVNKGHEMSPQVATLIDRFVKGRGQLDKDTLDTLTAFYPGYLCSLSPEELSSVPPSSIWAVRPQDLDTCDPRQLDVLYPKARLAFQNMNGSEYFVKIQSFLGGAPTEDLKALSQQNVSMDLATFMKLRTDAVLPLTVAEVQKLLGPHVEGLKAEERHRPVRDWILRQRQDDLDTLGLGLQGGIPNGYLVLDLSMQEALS
method: FACS, OVCAR3 cells
Quick reference for Maximum_MFI among some binders

>  <binder>
F7.44.20-H2 (scFv, not shown: small tags and cut ends, also called S009-F7.44.20 humanized antibody VH1 + VL2) scFv: EVQLVQSGAEVKKPGASVKVSCKASGYTFTDYNMDWVRQAPGQGLEWMGDINPSTGGTIYNQKFNGRVTMTEDKSTSTVYMELSSLRSEDTAVYYCARRRIGTGYFDVWGQGTTVTVSSGGGGSGGGGSGGGGSEIVLTQSPDFQSVTPKEKVTITCSASSSVISSYLSWYQQKPDQSPKLLIYRTSNLASGVPSRFSGSGSGTDYTLTINSLEAEDAATYYCHQWSSFPYTFGGGTKVEIK

>  <Maximum_MFI>
1820 MFI

$$$$
>  <binder>
F7.44.20-H13 (scFv, not shown: small tags and cut ends, also called S009-F7.44.20 humanized antibody VH2a + VL1) scFv: EVQLVQSGAEVKKPGASVKVSCKASGYTFTDYNMDWVRQAPGQGLEWMGDINPSTGGTIYNQKFSGRVTMTEDKSASTVYMELSSLRSEDTAVYYCARRRIGTGYFDVWGQGTTVTVSSGGGGSGGGGSGGGGSEIVLTQSPDFQSVTPKEKVTITCSASSSVISSYLSWYQQKPDQSPKLLIYRTSNLASGVPSRFSGSGSGTDFTLTINSLEAEDAATYYCHQWSSFPYTFGGGTKVEIK

>  <Maximum_MFI>
2150 MFI

$$$$
>  <binder>
F7.44.20-H1 (scFv, not shown: small tags and cut ends, also called S009-F7.44.20 humanized antibody VH1 + VL1) scFv: EVQLVQSGAEVKKPGASVKVSCKASGYTFTDYNMDWVRQAPGQGLEWMGDINPSTGGTIYNQKFNGRVTMTEDKSTSTVYMELSSLRSEDTAVYYCARRRIGTGYFDVWGQGTTVTVSSGGGGSGGGGSGGGGSEIVLTQSPDFQSVTPKEKVTITCSASSSVISSYLSWYQQKPDQSPKLLIYRTSNLASGVPSRFSGSGSGTDFTLTINSLEAEDAATYYCHQWSSFPYTFGGGTKVEIK

>  <Maximum_MFI>
1820 MFI

$$$$
>  <binder>
F7.44.20-H12 (scFv, not shown: small tags and cut ends, also called S009-F7.44.20 humanized antibody VH2 + VL4) scFv: EVQLVQSGAEVKKPGASVKVSCKASGYTFTDYNMDWVRQAPGQGLEWMGDINPSTGGTIYNQKFNGRVTMTEDKSASTVYMELSSLRSEDTAVYYCARRRIGTGYFDVWGQGTTVTVSSGGGGSGGGGSGGGGSEIVLTQSPATLSLSPGERATLSCSASSSVISSYLSWYQQKPGSSPRLLIYRTSNLASGIPARFSGSGSGTDYTLTISSLEPEDFAVYYCHQWSSFPYTFGGGTKVEIK

>  <Maximum_MFI>
2100 MFI

$$$$
>  <binder>
F7.44.20-H4 (scFv, not shown: small tags and cut ends, also called S009-F7.44.20 humanized antibody VH1 + VL4) scFv: EVQLVQSGAEVKKPGASVKVSCKASGYTFTDYNMDWVRQAPGQGLEWMGDINPSTGGTIYNQKFNGRVTMTEDKSTSTVYMELSSLRSEDTAVYYCARRRIGTGYFDVWGQGTTVTVSSGGGGSGGGGSGGGGSEIVLTQSPATLSLSPGERATLSCSASSSVISSYLSWYQQKPGSSPRLLIYRTSNLASGIPARFSGSGSGTDYTLTISSLEPEDFAVYYCHQWSSFPYTFGGGTKVEIK

>  <Maximum_MFI>
1680 MFI

$$$$
